Recorded pIC50 values for a group of compounds are listed next.
systemUnderTest: ADAMTS4 (Homo sapiens (Human), UniProt O75173)
Sequence (O75173 213-685): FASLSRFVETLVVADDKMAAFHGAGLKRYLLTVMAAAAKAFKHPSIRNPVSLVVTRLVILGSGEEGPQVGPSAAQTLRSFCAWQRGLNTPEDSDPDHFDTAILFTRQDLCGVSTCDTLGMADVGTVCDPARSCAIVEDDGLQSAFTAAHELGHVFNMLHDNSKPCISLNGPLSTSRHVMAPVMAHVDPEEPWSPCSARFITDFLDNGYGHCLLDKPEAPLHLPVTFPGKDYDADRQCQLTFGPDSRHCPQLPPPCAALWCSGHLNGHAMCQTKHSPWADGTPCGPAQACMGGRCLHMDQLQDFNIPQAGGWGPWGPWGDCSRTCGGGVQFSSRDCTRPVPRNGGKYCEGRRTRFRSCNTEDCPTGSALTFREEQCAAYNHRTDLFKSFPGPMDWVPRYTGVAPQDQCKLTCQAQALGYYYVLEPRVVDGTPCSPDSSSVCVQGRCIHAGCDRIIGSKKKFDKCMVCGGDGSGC
assayName: Selectivity assay for ADAMTS-7 modulators: ADAMTS4 (FRET substrate)
Format: biochemical
conditions: ADAMTS4 (R&D 4307-AD) 50 nM, substrate Dabcyl-EEVKAKVQPY-Glu(Edans)-NH2 1 μM, 120 min, 32° C.
pIC50: −log10 of the molar value.

| compound | resultModifier | pIC50 |
| --- | --- | --- |
| Cn1ccnc1C1(CNC(=O)c2ccc(F)cc2-c2ccc(Cl)cc2)NC(=O)NC1=O (single isomer, unassigned; ent-4) | = | 5.52 |
| O=C1NC(=O)[C@](CNC(=O)c2ccccc2-c2ccc(C(F)F)cc2)(C2CC2)N1 | = | 5.10 |
| Cc1c(C2(CNC(=O)c3ccccc3-c3ccc(C(F)(F)F)cc3)NC(=O)NC2=O)cnn1C (racemic) [Example 14] | = | 4.77 |
| O=C1NC(=O)C(CNC(=O)c2ccccc2-c2ccc(C(F)(F)F)cc2)(c2ccnn2CC(F)(F)F)N1 (centres unmarked) [Example 28] | = | 4.96 |
| O=C1NC(=O)[C@](CNC(=O)c2ccc(C(F)(F)F)cc2-c2ccc(C(F)(F)F)cc2)(C2CC2)N1 | = | 4.21 |
| Cc1cc(C2(CNC(=O)c3ccccc3-c3ccc(C(F)(F)F)cc3)NC(=O)NC2=O)n(C)n1 (centres unmarked) [Example 302] | = | 5.12 |
| Cc1nscc1C1(CNC(=O)c2ccccc2-c2ccc(C(F)(F)F)nc2)NC(=O)NC1=O (racemic) [Example 49] | = | 4.66 |
| Cc1ccc(C(=O)NC[C@@]2(C3CC3)NC(=O)NC2=O)c(-c2ccc(C3CC3(F)F)cc2)c1 (some centres unmarked) [Example 136] | = | 5.15 |
| O=C1NC(=O)C(CNC(=O)c2ccccc2-c2ccc(C(F)(F)F)cc2)(C2CCCC2)N1 (racemic) | < | 4.30 |
| Cc1ccc(C(=O)NCC2(c3nccn3C)NC(=O)NC2=O)c(-c2ccc(C(F)(F)F)cc2)c1C (single isomer, unassigned; ent-5) | = | 6.80 |
| O=C1NC(=O)[C@](CNC(=O)c2ccccc2-c2ccc(CC(F)(F)F)cc2)(C2CC2)N1 | = | 5.04 |
| O=C1NC(=O)C(CNC(=O)c2ccc(F)cc2-c2ccc(C(F)(F)F)cc2)(c2cscn2)N1 (racemic) [Example 198] | = | 4.41 |
| CC(C)C1(CNC(=O)c2ccccc2-c2ccc(C(F)(F)F)cc2)NC(=O)NC1=O (centres unmarked) [Example 209] | = | 4.44 |
| Cc1ncn(C)c1C1(CNC(=O)c2ccc(F)cc2-c2ccc(C(F)(F)F)cc2)NC(=O)NC1=O (racemic) | = | 5.01 |
